Measured values drawn from the Deep4Chem optical property database for this set.

Assay Text: solvent given as SMILES
Condition Context: in C1CCCCC1
In this section, each of the compounds is paired with its reported absorption maximum.

- Compound: "CN(C)c1ccc(C(=O)Nc2ccccc2)cc1"
  Unit Descriptor: "nm"
  absorption maximum: 307
- Compound: "CC(C)[Si]1(C(C)C)c2cc(C#N)ccc2-c2ccc(N(C)C)cc21"
  Unit Descriptor: "nm"
  absorption maximum: 357
- Compound: "CCCCCCCCCCCCC(CCCCCCCCCC)Cn1c2cc(/C=C/C=C/c3nc4ccccc4s3)c3cccc4c5cccc6c(/C=C/C=C/c7nc8ccccc8s7)cc1c(c65)c2c34 (stereo not drawn)"
  Unit Descriptor: "nm"
  absorption maximum: 530
- Compound: "COc1cc2c3c(c4cc(OC)c(OC)c(OC)c4c2c(OC)c1OC)=[N+]1C(=C(c2c(C)cc(C)cc2C)c2cc4c5cc(OC)c(OC)c(OC)c5c5c(OC)c(OC)c(OC)cc5c4n2[B-]1(F)F)C=3"
  Unit Descriptor: "nm"
  absorption maximum: 733
- Compound: "O=Cc1ccc(C2=C3C=c4c(oc5ccccc45)=[N+]3[B-](F)(F)n3c2cc2c4ccccc4oc23)cc1"
  Unit Descriptor: "nm"
  absorption maximum: 592.5
- Compound: "CN(C)c1ccc(/C=C2/N=C(c3ccccc3)OC2=O)cc1"
  Unit Descriptor: "nm"
  absorption maximum: 456
- Compound: "CC1(C)Cc2c(c3ccccc3c3nc4ccccc4nc23)O1"
  Unit Descriptor: "nm"
  absorption maximum: 456
- Compound: "Clc1ccc(/C=C/c2nc3ccccc3s2)cc1"
  Unit Descriptor: "nm"
  absorption maximum: 340
- Compound: "FC(F)(F)c1ccc(/C=C/c2nc3c(ccc4ccccc43)s2)cc1"
  Unit Descriptor: "nm"
  absorption maximum: 375
- Compound: "CCCCCCOc1ccc(-c2cnc(-c3nnc(-c4ccc(OCCCCCC)cc4)o3)o2)cc1"
  Unit Descriptor: "nm"
  absorption maximum: 316
- Compound: "COc1ccc(-c2ccccc2)cc1"
  Unit Descriptor: "nm"
  absorption maximum: 265.82
- Compound: "Cc1cc(O)c(C(C)C)cc1/N=C/c1ccc([N+](=O)[O-])cc1"
  Unit Descriptor: "nm"
  absorption maximum: 385
- Compound: "CC1=N/C(=C\\c2ccccc2N)C(=O)N1C"
  Unit Descriptor: "nm"
  absorption maximum: 427
- Compound: "COc1c2ccccc2c(OC)c2c1c1c(C)ccc(OC)c1n2C"
  Unit Descriptor: "nm"
  absorption maximum: 417
- Compound: "CCC1=C(C)C2=C(C)c3cc(I)c(I)n3[B-](F)(F)[N+]2=C1C"
  Unit Descriptor: "nm"
  absorption maximum: 532
- Compound: "Cc1ccc(C(=O)/C=C2\\C(=O)Nc3ccccc32)cc1C"
  Unit Descriptor: "nm"
  absorption maximum: 335
- Compound: "COc1ccc(C2=CC3=C(c4c(C)cc(C)cc4C)c4cc(-c5ccc(OC)cc5)c(-c5ccc(OC)cc5)n4[B-](F)(F)[N+]3=C2c2ccc(OC)cc2)cc1"
  Unit Descriptor: "nm"
  absorption maximum: 621
- Compound: "CCCCCCCCCCCCCCCCOc1cc(C#Cc2ccc3ccccc3c2-c2c(C#Cc3cc(OCCCCCCCCCCCCCCCC)c(C#Cc4ccc(C=C(C#N)C#N)cc4)cc3OCCCCCCCCCCCCCCCC)ccc3ccccc23)c(OCCCCCCCCCCCCCCCC)cc1C#Cc1ccc(C=C(C#N)C#N)cc1"
  Unit Descriptor: "nm"
  absorption maximum: 444
- Compound: "CC1=[N+]2C(=C(c3ccc4c(c3)Cc3ccccc3-4)c3ccc(C)n3[B-]2(F)F)C=C1c1cc2n(c1)[B-](F)(F)[N+]1=CC=CC1=C2c1c(C)cc(C)cc1C"
  Unit Descriptor: "nm"
  absorption maximum: 597.5
- Compound: "CN(C)c1ccc(C(=O)Nc2cccc(Br)c2)cc1"
  Unit Descriptor: "nm"
  absorption maximum: 310
- Compound: "COc1ccc2c3c(c4ccc(OC)cc4c2c1)C1(c2ccccc2-c2ccccc21)c1ccccc1-3"
  Unit Descriptor: "nm"
  absorption maximum: 386
- Compound: "COc1ccccc1"
  Unit Descriptor: "nm"
  absorption maximum: 267.24
- Compound: "CCN1/C(=C\\c2c(-c3ccc(N(C)C)cc3)c(=O)c2=O)C=Cc2ccccc21"
  Unit Descriptor: "nm"
  absorption maximum: 359
- Compound: "COc1ccc2c(c1)-c1ccccc1C2=O"
  Unit Descriptor: "nm"
  absorption maximum: 365
- Compound: "CCCN1C(=O)c2c3c(c4c(c2C1=O)CCc1cc(-c2ccc(N(C)C)cc2)c(OC)cc1-4)-c1cc(OC)c(-c2ccc(N(C)C)cc2)cc1CC3"
  Unit Descriptor: "nm"
  absorption maximum: 404
- Compound: "Cc1ccc(C2=C3C=C(I)C=[N+]3[B-](F)(F)n3cccc32)cc1"
  Unit Descriptor: "nm"
  absorption maximum: 523.5
- Compound: "C[Si](C)(C)c1ccc([Si](C)(C)C)c2ccccc12"
  Unit Descriptor: "nm"
  absorption maximum: 300
- Compound: "CN(C)c1ccc2c(c1)-c1ccccc1C2=O"
  Unit Descriptor: "nm"
  absorption maximum: 400
- Compound: "CCCCCCOc1ccc2oc3c(c2c1)=CC1=C(c2ccccc2C)c2cc4c5cc(OCCCCCC)ccc5oc4n2[B-](F)(F)[N+]=31"
  Unit Descriptor: "nm"
  absorption maximum: 592
- Compound: "FC(F)(F)c1cc2n(n1)[B-]1(c3ccccc3-c3ccccc31)[n+]1ccc3ccccc3c1-2"
  Unit Descriptor: "nm"
  absorption maximum: 373
- Compound: "COC(=O)C(Cc1ccc2oc(-c3ccc4c(c3)c3ccccc3n4-c3ccccc3)nc2c1)NC(=O)OC(C)(C)C (stereo not drawn)"
  Unit Descriptor: "nm"
  absorption maximum: 326
- Compound: "Nc1cccc2cc3ccccc3cc12"
  Unit Descriptor: "nm"
  absorption maximum: 384.17
- Compound: "CN(C)c1ccc(/C=C/c2nc3c(ccc4ccccc43)s2)cc1"
  Unit Descriptor: "nm"
  absorption maximum: 402
- Compound: "CC(C)(C)c1ccc2c(c1)Cc1cc(C(C)(C)C)ccc1-2"
  Unit Descriptor: "nm"
  absorption maximum: 308
- Compound: "CN(C)c1cccc2c1C(=O)c1ccccc1C2=O"
  Unit Descriptor: "nm"
  absorption maximum: 487
- Compound: "COC1=[N+]2C(=C(c3ccc(C)cc3)c3ccc(OC)n3[B-]2(F)F)C=C1"
  Unit Descriptor: "nm"
  absorption maximum: 513
- Compound: "CCCC1(CCC)c2cc(-c3ccc(C(C)(C)C)cc3)ccc2-c2ccc(-c3ccc4c(c3)C(CCC)(CCC)c3cc(-c5ccc(C(C)(C)C)cc5)ccc3-4)cc21"
  Unit Descriptor: "nm"
  absorption maximum: 346
- Compound: "c1ccc(-c2nn(-c3ccccc3)c3nc4ccc(N(c5ccccc5)c5ccccc5)cc4cc23)cc1"
  Unit Descriptor: "nm"
  absorption maximum: 452.08

====

Assay Text: solvent given as SMILES
Condition Context: in C1CCCCC1
Threshold check on absorption maximum: strictly below 400 nm is 1.0; on or above 400 nm is 0.0.

- Smiles Str: "CC1(C)CCc2c(c3ccccc3c3nc4ccccc4nc23)O1"
  Category Label: 0.0
- Smiles Str: "CCC1=C(C)C2=C(C)c3c(C)c(CC)c(C)n3[B-](F)(F)[N+]2=C1C"
  Category Label: 0.0
- Smiles Str: "COc1ccc(C2=C(c3ccc(OC)cc3)C(C)(C)c3ccc4ccccc4c32)cc1"
  Category Label: 1.0
- Smiles Str: "c1cc2ccc3cccc4ccc(c1)c2c34"
  Category Label: 1.0
- Smiles Str: "Cc1ccc([B-]2(c3ccc(C)cc3)n3nc(C(F)(F)F)cc3-c3c4ccccc4cc[n+]32)cc1"
  Category Label: 1.0
- Smiles Str: "Cc1cc(C)c(C2=C3C=C(c4ccccc4)C(c4ccccc4)=[N+]3[B-](F)(F)n3c2cc(-c2ccccc2)c3-c2ccccc2)c(C)c1"
  Category Label: 0.0
- Smiles Str: "C[Si](C)(C)c1cccc2c(C#N)cccc12"
  Category Label: 1.0
- Smiles Str: "CCC(C)(C)c1ccc2c(c1)C(CC)(CC)c1cc(-c3ccc(-c4ccc5c(c4)C(CC)(CC)c4cc(C(C)(C)CC)ccc4-5)cc3)ccc1-2"
  Category Label: 1.0
- Smiles Str: "N#Cc1cc2ccccc2oc1=O"
  Category Label: 1.0
- Smiles Str: "CC1=[N+]2C(=C(c3ccc(N(C)C)cc3)c3ccc(C)n3[B-]2(F)F)C=C1"
  Category Label: 0.0

====

Assay Text: solvent given as SMILES
Condition Context: in C1CCCCC1
Hi! Could you tag entries with absorption maximum below 400 nm as class 1, and those at or above as class 0? Much appreciated.

- Molecule: "CN(C)c1ccc(C#Cc2ccccc2)cc1"
  Category Label: "class 1"
- Molecule: "c1ccc(-c2c3c(cc4c2-c2ccccc2C4)-c2ccccc2C3)cc1"
  Category Label: "class 1"
- Molecule: "CCC1(CC)c2cc(C=C(C#N)C#N)ccc2-c2ccc(N(C)C)cc21"
  Category Label: "class 0"
- Molecule: "c1ccc(N(c2ccccc2)c2ccc3c(ccc4nc5ccc6cc(N(c7ccccc7)c7ccccc7)ccc6c5nc43)c2)cc1"
  Category Label: "class 0"
- Molecule: "CCCC1(CCC)c2cc(C#N)ccc2-c2ccc(C#N)cc21"
  Category Label: "class 1"
- Molecule: "CN(C)c1ccc2nc(/C=C/c3cc4c5c(c3)CCCN5CCC4)c(=O)oc2c1"
  Category Label: "class 0"
- Molecule: "CCCCC1=Cc2c3ccc4cccc5ccc(c6cc(-c7ccc(N(c8ccccc8)c8ccccc8)cc7)n(c26)P1(=O)c1ccccc1)c3c45 (stereo not given)"
  Category Label: "class 0"
- Molecule: "COc1cc(OC)cc(-c2ccc(-c3ccc(C#N)s3)s2)c1"
  Category Label: "class 1"
